Measured koff, listed per entry.
System under test: T1, T2 mechanosensitive channel from Thermoplasma volcanium, tag free (Thermoplasma volcanium)
T1 construct: TVN0821, gene amplified from genomic DNA (DSM 4299 [GSS1*]); 297 amino acids per monomer; Cloned into pNIC28-Bsa4 (TEV site) and pET46 (Enterokinase site); In detergent (0.03 % DDM); also called T2 channel; tag free T2-channel; source: E. coli C43(DE3), purified (DDM solubilised, IMAC, tag cleavage, second IMAC, gel filtration); not shown: His-tag, N-terminal, cleaved
T1 chain: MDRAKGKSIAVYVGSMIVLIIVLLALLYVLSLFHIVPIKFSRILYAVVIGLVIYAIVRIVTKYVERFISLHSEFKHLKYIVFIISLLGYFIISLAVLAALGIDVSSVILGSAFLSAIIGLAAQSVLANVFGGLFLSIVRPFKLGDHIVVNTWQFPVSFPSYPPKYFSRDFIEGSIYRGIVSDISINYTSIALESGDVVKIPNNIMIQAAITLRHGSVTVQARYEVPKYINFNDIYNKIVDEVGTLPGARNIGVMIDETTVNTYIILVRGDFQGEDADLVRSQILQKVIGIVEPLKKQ
Method description: SPR; BIAcore 3000, 25 °C, 20 mM sodium phosphate pH 7.4, 150 mM NaCl, 0.03 % DDM; T2 channel amine-coupled on CM5 (1500 - 2000 RU); nanobodies 0.35 - 86.1 nM injected in triplicates; global fit to a simple bimolecular model, KD = kd/ka
Cond: both partners purified
Write it as a number; the unit s⁻¹ goes unstated.

1. nanobody 13 (VHH, pHEN6 vector; also called Nb 13; CA-number 3395; source: E. coli WK6 periplasm, purified (IMAC, gel filtration); not shown: His-tag, C-terminal, kept) VHH: QVQLQESGGGLVQPGGSLRLSCAASGSISRINHMGWYRQPPGKQRELVAVITSGGSTNYADSVKGRFTISRGNYQNTVYLQMNSLKAEDTAVYYCNAYTEFDRPYNHWGQGTQVTVSS :: 0.00088

Lab note: nanobody 7 (VHH, pHEN6 vector; also called Nb 7; CA-number 3388; source: E. coli WK6 periplasm, purified (IMAC, gel filtration); not shown: His-tag, C-terminal, kept) VHH: QVQLQESGGGLVQPGGSLRLSCTASGTIFMIDAMGWYRQAPGKQRELVALINSGGSTNYADSVKGRFAISRNNARSTVYLQMNSLKPEDTAVYYCNADTWNGVRRDVYWGQGTQVTVSS gave koff of 0.07
